Measured AC50, listed per entry for reference.
- Tested system: POLγA:A467T (Homo sapiens, UniProt P54098, A467T)
- Sequence (P54098 whole entry A467T): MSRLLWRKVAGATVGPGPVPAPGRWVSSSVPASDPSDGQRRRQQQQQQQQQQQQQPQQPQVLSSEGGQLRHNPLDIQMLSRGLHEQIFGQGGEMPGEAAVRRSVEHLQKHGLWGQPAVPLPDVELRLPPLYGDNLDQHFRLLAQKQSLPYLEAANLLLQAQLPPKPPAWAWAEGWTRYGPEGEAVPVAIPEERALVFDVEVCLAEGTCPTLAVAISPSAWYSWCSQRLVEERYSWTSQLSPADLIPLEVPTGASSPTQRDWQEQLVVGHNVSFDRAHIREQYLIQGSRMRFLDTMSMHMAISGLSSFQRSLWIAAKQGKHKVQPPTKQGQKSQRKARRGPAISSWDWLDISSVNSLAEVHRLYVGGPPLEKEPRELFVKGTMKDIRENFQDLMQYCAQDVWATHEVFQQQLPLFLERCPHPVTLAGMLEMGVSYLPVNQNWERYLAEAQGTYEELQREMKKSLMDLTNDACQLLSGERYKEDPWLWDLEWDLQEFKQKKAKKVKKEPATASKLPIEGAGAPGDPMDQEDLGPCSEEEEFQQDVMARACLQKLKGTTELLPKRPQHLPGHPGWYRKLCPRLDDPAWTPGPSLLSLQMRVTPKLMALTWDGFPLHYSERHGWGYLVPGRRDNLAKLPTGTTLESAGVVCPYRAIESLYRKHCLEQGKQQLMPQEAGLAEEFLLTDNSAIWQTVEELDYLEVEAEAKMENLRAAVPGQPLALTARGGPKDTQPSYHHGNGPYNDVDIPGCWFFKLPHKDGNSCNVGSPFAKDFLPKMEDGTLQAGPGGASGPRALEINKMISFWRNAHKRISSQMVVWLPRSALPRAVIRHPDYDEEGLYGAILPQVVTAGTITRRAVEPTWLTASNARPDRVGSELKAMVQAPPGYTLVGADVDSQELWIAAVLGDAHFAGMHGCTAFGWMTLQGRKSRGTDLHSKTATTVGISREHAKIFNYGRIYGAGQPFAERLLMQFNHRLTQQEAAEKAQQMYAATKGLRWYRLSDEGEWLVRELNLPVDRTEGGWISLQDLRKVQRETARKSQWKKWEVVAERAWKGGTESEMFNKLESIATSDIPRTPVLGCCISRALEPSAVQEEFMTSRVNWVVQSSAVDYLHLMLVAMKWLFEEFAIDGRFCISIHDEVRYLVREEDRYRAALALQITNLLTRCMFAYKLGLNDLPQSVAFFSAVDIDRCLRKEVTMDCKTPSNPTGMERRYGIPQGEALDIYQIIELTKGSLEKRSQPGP
- Sequence (Q9UHN1 whole entry partner): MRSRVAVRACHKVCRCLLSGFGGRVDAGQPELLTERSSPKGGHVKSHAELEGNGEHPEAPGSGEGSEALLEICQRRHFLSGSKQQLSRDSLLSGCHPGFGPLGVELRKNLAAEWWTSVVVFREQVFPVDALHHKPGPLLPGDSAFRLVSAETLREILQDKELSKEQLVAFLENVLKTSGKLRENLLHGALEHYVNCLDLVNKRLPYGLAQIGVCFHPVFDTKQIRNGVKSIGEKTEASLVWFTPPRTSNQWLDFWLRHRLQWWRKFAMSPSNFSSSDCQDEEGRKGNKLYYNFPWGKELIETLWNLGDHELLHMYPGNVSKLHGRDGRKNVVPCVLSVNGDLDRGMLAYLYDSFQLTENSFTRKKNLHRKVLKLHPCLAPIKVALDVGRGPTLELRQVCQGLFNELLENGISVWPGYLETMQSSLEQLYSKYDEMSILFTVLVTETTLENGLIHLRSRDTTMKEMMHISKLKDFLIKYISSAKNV
- Assay comment: DNA polymerization assay, POLγA:A467T mutant
- Assay type: biochemical
- Experimental parameters: stimulation of polymerase activity, primed M13mp18 ssDNA, 37° C. 2 hours; read-out: A467T AC50
Reported metric: AC50

[[record]]
compound = "Cc1cnc(-c2cc(NS(=O)(=O)c3cc(C)c(Cl)cc3C)ccc2Cl)s1 [Example 111]"
tested_system = "POLγA:A467T (Homo sapiens, UniProt P54098, A467T)"
result = "> 100 µM"

[[record]]
compound = "Cc1cc(S(=O)(=O)Nc2nc(-c3ccccc3)co2)c(C)cc1Cl [Example 157]"
tested_system = "POLγA:A467T (Homo sapiens, UniProt P54098, A467T)"
result = "> 100 µM"

[[record]]
compound = "Cc1cc(S(=O)(=O)Nc2cccc(C(=O)N3CCC[C@H]3C)c2)ccc1Cl [Example 117]"
tested_system = "POLγA:A467T (Homo sapiens, UniProt P54098, A467T)"
result = "> 100 µM"

[[record]]
compound = "O=S(=O)(Nc1csc(-c2ccccc2)n1)c1ccc(Cl)cc1 [Example 120]"
tested_system = "POLγA:A467T (Homo sapiens, UniProt P54098, A467T)"
result = "> 100 µM"

[[record]]
compound = "Cc1ccc(C)c(S(=O)(=O)Nc2ccc(C(=O)NCC3CC3)cc2)c1 [Example 40]"
tested_system = "POLγA:A467T (Homo sapiens, UniProt P54098, A467T)"
result = "> 100 µM"

[[record]]
compound = "Cc1cc(S(=O)(=O)Nc2cccc(-c3nccn3C)c2)c(C)cc1Cl [Example 19]"
tested_system = "POLγA:A467T (Homo sapiens, UniProt P54098, A467T)"
result = "11 µM"

[[record]]
compound = "Cc1cc(S(=O)(=O)Nc2csc(C(=O)N3CCC[C@@H]3C)n2)c(C)cc1Cl [Example 175]"
tested_system = "POLγA:A467T (Homo sapiens, UniProt P54098, A467T)"
result = "3 µM"

[[record]]
compound = "Cc1ccc(C)c(S(=O)(=O)Nc2cccc(C(=O)N3CCCC[C@H]3C)c2)c1 [Example 5]"
tested_system = "POLγA:A467T (Homo sapiens, UniProt P54098, A467T)"
result = "33 µM"

